system: HCI-016 (organoid from a triple-negative breast cancer xenograft); experiment: CTG-3D luminescence at 96 h relative to day-0 seeding control (ratio to day 0); higher = more growth / less cytotoxicity; PDxO 3D drug screen, 96 h, CTG-3D normalised to day-0 seeding control.; settings: 0.00025 µM; days in culture: 199
CTG-3D luminescence at 96 h for assorted compounds
Please reply with the number alone, leaving off any unit.

Below are worked cases with known answers.
CC(=O)O[C@H]1C(=O)[C@@]2(C)[C@H]([C@H](OC(=O)c3ccccc3)[C@]3(O)C[C@H](OC(=O)[C@H](O)[C@@H](NC(=O)c4ccccc4)c4ccccc4)C(C)=C1C3(C)C)[C@]1(OC(C)=O)CO[C@@H]1C[C@@H]2O [paclitaxel]; 1.67
O=C(O)C1(C(=O)O)CCC1.[NH2-].[NH2-].[Pt+2] [carboplatin]; 1.29
NC(=O)Nc1cc(-c2cccc(F)c2)sc1C(=O)N[C@H]1CCCNC1 [AZD7762]; 1.46
C/C=C1\NC(=O)[C@H]2CSSCC/C=C/[C@H](CC(=O)N[C@H](C(C)C)C(=O)N2)OC(=O)[C@H](C(C)C)NC1=O [romidepsin]; 2.14
CC(C)(C(=O)NCC(F)(F)C(F)(F)F)C(=O)N[C@@H]1C(=O)Nc2ccccc2-c2ccccc21; 1.04

Consider the additional compound presented here.
Give recorded CTG-3D luminescence at 96 h. CC1(C)CCC(c2ccc(Cl)cc2)=C(CN2CCN(c3ccc(C(=O)NS(=O)(=O)c4ccc(N[C@H](CCN5CCOCC5)CSc5ccccc5)c(S(=O)(=O)C(F)(F)F)c4)cc3)CC2)C1 [navitoclax]
2.16
